For each of the compounds below, state its IC50.

Exercise: Entry CCc1cnc(N2CCN(c3nnc(Cc4ccccc4)c4ccccc34)CC2)nc1 , system mouse Smoothened receptor (Mus musculus, UniProt P56726): what IC50 was measured?
Key: < 0.1 µM

Exercise: Entry c1ccc(Cc2nnc(N3CCC(c4nc5ccccc5[nH]4)CC3)c3ccccc23)cc1 , system mouse Smoothened receptor (Mus musculus, UniProt P56726): what IC50 was measured?
Key: < 0.1 µM

Exercise: Entry CC1(c2ccc(N3CCN(c4nnc(Cc5ccccc5)c5ccccc45)CC3)nc2)OCCO1 , system mouse Smoothened receptor (Mus musculus, UniProt P56726): what IC50 was measured?
Key: < 0.1 µM

Exercise: Entry CN(C)C(=O)c1cnc(N2CCN(c3nnc(Cc4ccccc4)c4ccccc34)CC2)nc1 [Example 54aa] , system mouse Smoothened receptor (Mus musculus, UniProt P56726): what IC50 was measured?
Key: 0.1 to 1 µM

Exercise: Entry N#Cc1ccc(N2CCN(c3nnc(Cc4ccc(F)cc4)c4c3CCC4)CC2)nc1 [Example 93c] , system mouse Smoothened receptor (Mus musculus, UniProt P56726): what IC50 was measured?
Key: < 0.1 µM

Exercise: Entry CCOC(=O)c1ccc(N2CCN(c3nnc(Cc4ccccc4F)c4ccccc34)CC2)nc1 , system mouse Smoothened receptor (Mus musculus, UniProt P56726): what IC50 was measured?
Key: < 0.1 µM

Exercise: Entry CC(=O)Nc1ccc(C2CCN(c3nnc(Cc4ccccc4)c4ccccc34)CC2)cc1 , system mouse Smoothened receptor (Mus musculus, UniProt P56726): what IC50 was measured?
Key: 0.1 to 1 µM

Exercise: Entry N#Cc1ccc(N2CCN(c3nnc(Cc4ccc(C(=O)O)cc4)c4ccccc34)CC2)nc1 , system mouse Smoothened receptor (Mus musculus, UniProt P56726): what IC50 was measured?
Key: 10 to 40 µM

Exercise: Entry COCC(=O)OCc1ccc(N2CCN(c3nnc(Cc4ccccc4)c4ccccc34)CC2)nc1 , system mouse Smoothened receptor (Mus musculus, UniProt P56726): what IC50 was measured?
Key: 0.1 to 1 µM

Exercise: Entry c1ccc(Cc2nnc(N3CCN(c4ccc(CNC5CCOCC5)cn4)CC3)c3ccccc23)cc1 , system mouse Smoothened receptor (Mus musculus, UniProt P56726): what IC50 was measured?
Key: 0.1 to 1 µM

Exercise: Entry N#Cc1ccc(N2CCN(c3nnc(Cc4ccc(Cl)c(Cl)c4)c4ccccc34)CC2)nc1 , system mouse Smoothened receptor (Mus musculus, UniProt P56726): what IC50 was measured?
Key: 0.1 to 1 µM

Exercise: Entry N#Cc1ccc(N2CCN(c3nnc(Cc4ccc(Cl)cc4)c4ccccc34)CC2)nc1 , system mouse Smoothened receptor (Mus musculus, UniProt P56726): what IC50 was measured?
Key: < 0.1 µM

Exercise: Entry CN(CCO)C(=O)c1ccc(N2CCN(c3nnc(Cc4ccccc4)c4ccccc34)CC2)nc1 [Example 54c] , system mouse Smoothened receptor (Mus musculus, UniProt P56726): what IC50 was measured?
Key: 0.1 to 1 µM

Exercise: Entry c1ccc(Cc2nnc(N3CCN(c4ccncc4)CC3)c3ccccc23)cc1 , system mouse Smoothened receptor (Mus musculus, UniProt P56726): what IC50 was measured?
Key: 1 to 10 µM

Exercise: Entry O=C(c1cccc(F)c1)N1CCC(c2cn(Cc3ccc(F)cc3)c3ccccc23)CC1 , system mouse Smoothened receptor (Mus musculus, UniProt P56726): what IC50 was measured?
Key: 0.1 to 1 µM

Exercise: Entry N#Cc1ccc(N2CCC(c3cn(Cc4ccc(F)cc4)c4ccccc34)CC2)nc1 , system mouse Smoothened receptor (Mus musculus, UniProt P56726): what IC50 was measured?
Key: 1 to 10 µM

Exercise: Entry CC(=O)Nc1ccc(N2CCN(c3nnc(Cc4ccccc4)c4ccccc34)CC2)nc1 , system mouse Smoothened receptor (Mus musculus, UniProt P56726): what IC50 was measured?
Key: 0.1 to 1 µM

====

For reference, IC50 measured on human Smoothened receptor (Homo sapiens):

Exercise: I would be grateful if you could share the reported IC50 for N#Cc1ccc(N2CCN(c3cnc(Cc4cccc(C(F)(F)F)c4)c4ccccc34)CC2)nc1 [Example 82] .
Key: 1 to 10 µM

Exercise: I would be grateful if you could share the reported IC50 for c1ccc(Cc2nnc(N3CCN(c4ccc(CN(C5COC5)C5COC5)cn4)CC3)c3ccccc23)cc1 [Example 231] .
Key: < 0.1 µM

Exercise: I would be grateful if you could share the reported IC50 for O=C(c1ccc(N2CCN(c3nnc(Cc4ccccc4)c4ccccc34)CC2)nc1)N1CC[S+]([O-])C1 (stereo not shown) [Example 54q] .
Key: 0.1 to 1 µM

Exercise: I would be grateful if you could share the reported IC50 for OC(c1ccc(N2CCN(c3nnc(Cc4ccccc4)c4ccccc34)CC2)nc1)C(F)(F)F (stereo not shown) [Example 109] .
Key: < 0.1 µM

Exercise: I would be grateful if you could share the reported IC50 for N#Cc1cccc(C(=O)N2CCC(c3cn(Cc4ccccc4)c4ccccc34)CC2)c1 [Example 103] .
Key: 1 to 10 µM

Exercise: I would be grateful if you could share the reported IC50 for Cc1cc(Cc2ccc(Cl)cc2)nnc1N1CCN(c2ccc(C#N)cn2)CC1 [Example 92] .
Key: 0.1 to 1 µM

Exercise: I would be grateful if you could share the reported IC50 for O=C(NC1CNC1)c1ccc(N2CCN(c3nnc(Cc4ccccc4)c4ccccc34)CC2)nc1 [Example 54y] .
Key: 1 to 10 µM

Exercise: I would be grateful if you could share the reported IC50 for CC(C)CC(=O)NCc1ccc(N2CCN(c3nnc(Cc4ccccc4)c4ccccc34)CC2)nc1 [Example 210] .
Key: < 0.1 µM

Exercise: I would be grateful if you could share the reported IC50 for Cc1cccc(Cc2nnc(N3CCN(c4ccc(C#N)cn4)CC3)c3ccccc23)c1 [Example 69] .
Key: 0.1 to 1 µM

Exercise: I would be grateful if you could share the reported IC50 for CCC(=O)NCc1ccc(N2CCN(c3nnc(Cc4ccccc4)c4ccccc34)CC2)cc1 [Example 78a] .
Key: 0.1 to 1 µM

Exercise: I would be grateful if you could share the reported IC50 for CN(C)C(=O)Nc1ccc(N2CCN(c3nnc(Cc4ccccc4)c4ccccc34)CC2)nc1 [Example 238] .
Key: 0.1 to 1 µM

Exercise: I would be grateful if you could share the reported IC50 for CC(C)(C)OC(=O)NC1CN(C(=O)c2ccc(N3CCN(c4nnc(Cc5ccccc5)c5ccccc45)CC3)nc2)C1 [Example 54v] .
Key: 0.1 to 1 µM

Exercise: I would be grateful if you could share the reported IC50 for CCN(CCO)C(=O)c1ccc(N2CCN(c3nnc(Cc4ccccc4)c4ccccc34)CC2)nc1 [Example 54d] .
Key: < 0.1 µM

Exercise: I would be grateful if you could share the reported IC50 for NC1CN(C(=O)c2ccc(N3CCN(c4nnc(Cc5ccccc5)c5ccccc45)CC3)nc2)C1 [Example 54w] .
Key: 10 to 40 µM

Exercise: I would be grateful if you could share the reported IC50 for C[C@@H]1CN(c2nnc(Cc3ccccc3)c3ccccc23)CCN1c1cnc(C(C)(C)O)cn1 [Example 156] .
Key: < 0.1 µM

Exercise: I would be grateful if you could share the reported IC50 for O=C(c1cccc(F)c1)N1CCC(c2cn(Cc3ccc(F)cc3)c3ccccc23)CC1 [Example 101] .
Key: 0.1 to 1 µM

====

System: Gli-luciferase activity
assay_details: Reporter gene assay (RGA) in TMHh12 cells, antagonism of Gli-luciferase activity in the presence of a Smo agonist
Format: cell-based
recorded_conditions: 25 nM small molecule Smo agonist, read-out: RGA (25 nM Smo agonist) IC50
pIC50: −log10 of the molar value.
For each of the compounds below, state its pIC50.

Exercise: Entry OC1CCN(Cc2ccc(N3CCN(c4nnc(Cc5ccccc5)c5ccccc45)CC3)nc2)C1 (centres unmarked) , system Gli-luciferase activity: what pIC50 was measured?
Key: 6.00 to 7.00

Exercise: Entry CC(C)(C)OC(=O)NC1CN(C(=O)c2ccc(N3CCN(c4nnc(Cc5ccccc5)c5ccccc45)CC3)nc2)C1 [Example 54v] , system Gli-luciferase activity: what pIC50 was measured?
Key: 5.00 to 6.00

Exercise: Entry N#Cc1ccc(N2CCN(c3cnc(Cc4cccc(C(F)(F)F)c4)c4ccccc34)CC2)nc1 , system Gli-luciferase activity: what pIC50 was measured?
Key: 4.40 to 5.00

Exercise: Entry CC(=O)c1cnc(N2CCN(c3nnc(Cc4ccccc4)c4ccccc34)C[C@H]2C)cn1 , system Gli-luciferase activity: what pIC50 was measured?
Key: > 7.00

Exercise: Entry N#Cc1ccc(N2CCC(c3cn(Cc4ccc(F)cc4)c4ccccc34)CC2)nc1 , system Gli-luciferase activity: what pIC50 was measured?
Key: 5.00 to 6.00

Exercise: Entry Cc1ccnc(N2CCN(c3nnc(Cc4ccccc4)c4ccccc34)CC2)n1 , system Gli-luciferase activity: what pIC50 was measured?
Key: > 7.00

Exercise: Entry CC(O)c1ccc(N2CCN(c3nnc(Cc4ccccc4)c4ccccc34)CC2)nc1 (centres unmarked) , system Gli-luciferase activity: what pIC50 was measured?
Key: 6.00 to 7.00

Exercise: Entry FC(F)(F)c1ccc(N2CCN(c3nnc(Cc4ccccc4)c4occc34)CC2)nc1 , system Gli-luciferase activity: what pIC50 was measured?
Key: 5.00 to 6.00

Exercise: Entry COC(=O)c1ccc(C2CCN(c3nnc(Cc4ccccc4)c4ccccc34)CC2)cc1 , system Gli-luciferase activity: what pIC50 was measured?
Key: 5.00 to 6.00

Exercise: Entry Cc1cc(Cc2nnc(N3CCN(c4ccc5ccccc5c4)CC3)c3ccccc23)ccn1 , system Gli-luciferase activity: what pIC50 was measured?
Key: 5.00 to 6.00

Exercise: Entry OC(c1ccc(N2CCN(c3nnc(Cc4ccccc4)c4ccccc34)CC2)nc1)(C(F)(F)F)C(F)(F)F , system Gli-luciferase activity: what pIC50 was measured?
Key: > 7.00

Exercise: Entry Fc1cc(Cl)cnc1N1CCN(c2nnc(Cc3ccccc3)c3ccccc23)CC1 , system Gli-luciferase activity: what pIC50 was measured?
Key: 6.00 to 7.00

Exercise: Entry CC(C)(O)Cc1ccc(N2CCN(c3nnc(Cc4ccccc4)c4ccccc34)CC2)nc1 , system Gli-luciferase activity: what pIC50 was measured?
Key: > 7.00

Exercise: Entry CC(C)CC(=O)NCc1ccc(N2CCN(c3nnc(Cc4ccccc4)c4ccccc34)CC2)cc1 [Example 78c] , system Gli-luciferase activity: what pIC50 was measured?
Key: > 7.00

Exercise: Entry O=C(c1ccc(N2CCN(c3nnc(Cc4ccccc4)c4ccccc34)CC2)nc1)N1CCC(O)C1 (centres unmarked) [Example 54o] , system Gli-luciferase activity: what pIC50 was measured?
Key: 6.00 to 7.00

Exercise: Entry OC(c1ccc(N2CCN(c3nnc(Cc4ccccc4)c4ccccc34)CC2)nc1)C1CCCC1 (centres unmarked) , system Gli-luciferase activity: what pIC50 was measured?
Key: 6.00 to 7.00

Exercise: Entry c1ccc(Cc2nnc(N3CCN(c4cccc5ccccc45)CC3)c3ccccc23)cc1 , system Gli-luciferase activity: what pIC50 was measured?
Key: 5.00 to 6.00

Exercise: Entry CN(CCO)C(=O)c1cnc(N2CCN(c3nnc(Cc4ccccc4)c4ccccc34)CC2)nc1 [Example 54cc] , system Gli-luciferase activity: what pIC50 was measured?
Key: 6.00 to 7.00

Exercise: Entry Cc1cc(C)nc(N2CCN(c3nnc(Cc4ccccc4)c4ccccc34)CC2)n1 , system Gli-luciferase activity: what pIC50 was measured?
Key: 5.00 to 6.00

Exercise: Entry N#Cc1ccc(Cn2cc(C3CCN(c4ccc(C(F)(F)F)cn4)CC3)c3ccccc32)cc1 , system Gli-luciferase activity: what pIC50 was measured?
Key: 6.00 to 7.00

Exercise: Entry COC(=O)c1cnc(N2CCN(c3nnc(Cc4ccccc4)c4ccccc34)CC2)cc1C(F)(F)F , system Gli-luciferase activity: what pIC50 was measured?
Key: 6.00 to 7.00

Exercise: Entry CN(C)CCNC(=O)c1ccc(N2CCN(c3nnc(Cc4ccccc4)c4ccccc34)CC2)nc1 [Example 54h] , system Gli-luciferase activity: what pIC50 was measured?
Key: 6.00 to 7.00

Exercise: Entry CN(C)C(=O)OCc1ccc(N2CCN(c3nnc(Cc4ccccc4)c4ccccc34)CC2)nc1 , system Gli-luciferase activity: what pIC50 was measured?
Key: 6.00 to 7.00

Exercise: Entry O=S(=O)(c1ccc(N2CCN(c3nnc(Cc4ccccc4)c4ccccc34)CC2)nc1)N1CCCC1 , system Gli-luciferase activity: what pIC50 was measured?
Key: 6.00 to 7.00

Exercise: Entry CC(O)CC(=O)NCc1ccc(N2CCN(c3nnc(Cc4ccccc4)c4ccccc34)CC2)nc1 (centres unmarked) , system Gli-luciferase activity: what pIC50 was measured?
Key: 6.00 to 7.00

Exercise: Entry CC(C)CC(=O)NCc1ccc(N2CCN(c3nnc(Cc4ccccc4)c4ccccc34)CC2)nc1 , system Gli-luciferase activity: what pIC50 was measured?
Key: > 7.00

Exercise: Entry O=C(NCC1CCCCC1)c1ccc(N2CCN(c3nnc(Cc4ccccc4)c4ccccc34)CC2)nc1 [Example 54m] , system Gli-luciferase activity: what pIC50 was measured?
Key: 6.00 to 7.00

Exercise: Entry CCC(=O)NCc1ccc(N2CCN(c3nnc(Cc4ccccc4)c4ccccc34)CC2)cc1 [Example 78a] , system Gli-luciferase activity: what pIC50 was measured?
Key: 6.00 to 7.00

Exercise: Entry CC(C)(O)CNC(=O)c1ccc(N2CCN(c3nnc(Cc4ccccc4)c4ccccc34)CC2)nc1 [Example 54u] , system Gli-luciferase activity: what pIC50 was measured?
Key: 6.00 to 7.00

Exercise: Entry N#Cc1ccc(N2CCN(c3nnc(Cc4cccc(C(F)(F)F)c4)c4ccccc34)CC2)nc1 , system Gli-luciferase activity: what pIC50 was measured?
Key: 5.00 to 6.00

Exercise: Entry O=C(c1ccc(N2CCN(c3nnc(Cc4ccccc4)c4ccccc34)CC2)nc1)N1CC[S+]([O-])C1 (centres unmarked) [Example 54q] , system Gli-luciferase activity: what pIC50 was measured?
Key: 6.00 to 7.00

Exercise: Entry FC1(F)CN(Cc2ccc(N3CCN(c4nnc(Cc5ccccc5)c5ccccc45)CC3)nc2)C1 , system Gli-luciferase activity: what pIC50 was measured?
Key: 6.00 to 7.00
